# System: KM12 colon
# Method: NCI-60 one-dose screen, 48 h
# Measurement parameters: 10 µM unless noted
About 83,000 compounds went through this panel and 20% of them were active in at least one assay; those are over-represented in the sample as a whole. Activity calls are given as the source filed them. Rule for the calls: active = growth percent below 10; inactive = the rest.
Possible outcomes: active, inactive

Molecule	Cat
COc1cc(C2CC(c3cccc(Nc4ccncc4)c3)=NN2c2ccccc2)cc(OC)c1OC (stereo unspecified)	active
CN(Cc1ccccc1)c1nc(Cl)c(C2CC(c3ccc(Cl)cc3)=Cc3[nH][nH]c(=O)c32)s1 (stereo unspecified)	inactive
C#CC(=O)Nc1cccc2c1cc(C)n2-c1nc2c(c(NCc3ccccc3)n1)CCCC2	active
O=C(Nc1cccc(Cl)c1)Oc1c(Br)c(Br)c(Br)c(Br)c1Br	inactive
Cc1ccc(-c2c(Br)c(OC(=O)CO[C@@H]3C[C@H](C)CC[C@H]3C(C)C)c(-c3ccc(C)cc3C)c(Br)c2OC(=O)CO[C@H]2C[C@@H](C)CC[C@@H]2C(C)C)c(C)c1	inactive
O=C1OC(=O)C2C1CC=CC2c1ccccc1 (stereo unspecified)	inactive
